From: patent US20090280167A1

System: HT29 cells
Experiment: miRNA concentration dependency of 17-AAG synergy
Assay type: cell-based
Conditions: 17-AAG 3.125 ug/ml, miRNA 60, 30, 15, 7.5 nM
MEASUREMENT_KIND: Class of activity in synergy with 17-AAG

miR-520d: miRNA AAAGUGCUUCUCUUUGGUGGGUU (SEQ ID NO:5) (listed as RNA, chemistry not given here; listed as Homo sapiens)    high activity
miR-145: miRNA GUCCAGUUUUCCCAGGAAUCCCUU (SEQ ID NO:1) (listed as RNA, chemistry not given here; listed as Homo sapiens)    low activity
miR-454-3p: miRNA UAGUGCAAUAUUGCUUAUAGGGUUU (SEQ ID NO:2) (listed as RNA, chemistry not given here; listed as Homo sapiens)    high activity
miR519a: miRNA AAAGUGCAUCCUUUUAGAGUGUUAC (SEQ ID NO:3) (listed as RNA, chemistry not given here; listed as Homo sapiens)    low activity

Class of activity in synergy with 17-AAG in this record for miR-520c: miRNA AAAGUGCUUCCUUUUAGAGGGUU (SEQ ID NO:4) (listed as RNA, chemistry not given here; listed as Homo sapiens) : high activity
